assay explanation: Compound was evaluated for the inhibitory constant against human Serine protease chymotrypsin
measured quantity: pKi
Entry type: numeric. Quantity: pKi, the -log10 of concentration in molar units.

`Cc1cc(OCCC=NNC(=N)N)cc(OS(=O)(=O)c2ccccc2OC(F)(F)F)c1` has a reported pKi of 4.06
